Data provenance: patent US4719235A

# Protocol: Cytotoxicity in solutions free of serum, selected cell lines (overall conclusion)
# Type: cell-based
# Assay setup: serum-free medium, read-out: concentration toxic to the cells
Property label: MCC at 24 h

Req: What value of MCC at 24 h has been reported for the following compound? CCCCC(CC)COC(=O)CC(C(=O)OCC(CC)CCCC)S(=O)(=O)O (stereo not shown) [docusate sodium]
Resp: 10 to 50 µg/mL

* * *

# Protocol: Cytotoxicity in solutions containing serum, foreskin fibroblasts
# Type: cell-based, human
# Assay setup: human, foreskin fibroblasts, 0.04 mg/ml, 2% fetal calf serum, 37° C., read-out: Foreskin (Cytotoxic effect)
Property label: cytotoxicity at 24 h

Req: # cytotoxicity at 24 h lookup, item CCCCC(CC)COC(=O)CC(C(=O)OCC(CC)CCCC)S(=O)(=O)O (stereo not shown) [docusate sodium]
Resp: > 90%

* * *

# Protocol: Cytotoxicity in solutions free of serum, HeLa
# Format: cell-based, human
# Assay setup: human, hela cells, 0.2 mg/ml, 37° C., read-out: HeLa (toxicity)
Property label: cytotoxicity at 24 h

Req: Suppose we examine the molecule CCCCC(CC)COC(=O)CC(C(=O)OCC(CC)CCCC)S(=O)(=O)O (stereo not shown) [docusate sodium] ; what cytotoxicity at 24 h value has been reported?
Resp: > 90%

* * *

# Protocol: Cytotoxicity in solutions containing serum, foreskin fibroblasts
# Format: cell-based, human
# Assay setup: human, foreskin fibroblasts, 0.02 mg/ml, 2% fetal calf serum, 37° C., read-out: Foreskin (Cytotoxic effect)
Property label: cytotoxicity at 24 h

Req: Using the record for CCCCC(CC)COC(=O)CC(C(=O)OCC(CC)CCCC)S(=O)(=O)O (stereo not shown) [docusate sodium] , report its cytotoxicity at 24 h.
Resp: < 10%

* * *

# Protocol: Cytotoxicity in solutions containing serum, HeLa
# Type: cell-based, human
# Assay setup: human, hela cells, 0.04 mg/ml, 2% fetal calf serum, 37° C., read-out: HeLa (Cytotoxic effect)
Property label: cytotoxicity at 24 h

Req: Consider the molecule shown here: CCCCC(CC)COC(=O)CC(C(=O)OCC(CC)CCCC)S(=O)(=O)O (stereo not shown) [docusate sodium] What is its recorded cytotoxicity at 24 h?
Resp: > 90%

* * *

# Protocol: Cytotoxicity in solutions free of serum, foreskin fibroblasts
# Type: cell-based, human
# Assay setup: human, foreskin fibroblasts, 0.2 mg/ml, 37° C., read-out: Foreskin (toxicity)
Property label: cytotoxicity at 24 h

Req: I would be grateful if you could share the reported cytotoxicity at 24 h for CCCCC(CC)COC(=O)CC(C(=O)OCC(CC)CCCC)S(=O)(=O)O (stereo not shown) [docusate sodium] .
Resp: > 90%

* * *

# Protocol: Cytotoxicity in solutions containing serum, foreskin fibroblasts
# Format: cell-based, human
# Assay setup: human, foreskin fibroblasts, 0.03 mg/ml, 2% fetal calf serum, 37° C., read-out: Foreskin (Cytotoxic effect)
Property label: cytotoxicity at 24 h

Req: Data request, read-out cytotoxicity at 24 h, for CCCCC(CC)COC(=O)CC(C(=O)OCC(CC)CCCC)S(=O)(=O)O (stereo not shown) [docusate sodium]
Resp: > 90%

* * *

# Protocol: Cytotoxicity in solutions containing serum, HeLa
# Type: cell-based, human
# Assay setup: human, hela cells, 0.03 mg/ml, 2% fetal calf serum, 37° C., read-out: HeLa (Cytotoxic effect)
Property label: cytotoxicity at 24 h

Req: Item under review: CCCCC(CC)COC(=O)CC(C(=O)OCC(CC)CCCC)S(=O)(=O)O (stereo not shown) [docusate sodium] . Reported cytotoxicity at 24 h?
Resp: < 10%

* * *

# Protocol: Cytotoxicity in solutions free of serum, MA-104
# Type: cell-based, monkey
# Assay setup: monkey, ma-104 cells, 0.2 mg/ml, 37° C., read-out: MA-104 (toxicity)
Property label: cytotoxicity at 24 h

Req: Entry CCCCC(CC)COC(=O)CC(C(=O)OCC(CC)CCCC)S(=O)(=O)O (stereo not shown) [docusate sodium] has what cytotoxicity at 24 h?
Resp: > 90%
